B1: H2-Kb / B5 (parent)
chain 1: TQTVSQSDAHVTVFEGDSVELRCNYSYGGSIYLSWYIQHHGHGLQFLLKYYSGNPVVQGVNGFEAEFSKSDSSFHLRKASVHWSDSAVYFCAVSLYQGGRALIFGTGTTVSVSP
chain 2: EAGVTQSPRYAVLQEGQAVSFWCDPISGHDTLYWYQQPRDQGPQLLVYFRDEAVIDNSQLPSDRFSAVRPKGTNSTLKIQSAKQGDTATYLCASSFAGGARAEQFFGPGTRLTVL
chain 3: not shown
chain 4: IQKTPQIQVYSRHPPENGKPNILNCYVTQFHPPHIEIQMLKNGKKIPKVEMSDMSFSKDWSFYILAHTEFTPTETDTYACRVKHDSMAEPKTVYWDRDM
chain 5: SIINFEKL

# Variants of: B1
# measurement_protocol: % of reporter cells activated (NFAT-GFP), raw; also: test concentration or dose not given here
# measurement_setup: with B5; scale: % of reporter cells activated
Consider the cut-off 1. If the recorded ratio to parent is strictly smaller, the label is condition met; if not, the label is condition not met.

Study these solved cases before continuing.
| alteration | label |
| --- | --- |
| chain 5 I3Q | condition met |
| chain 5 S1N | condition not met |
| chain 5 K7F | condition met |
| chain 5 E6L | condition not met |
| chain 5 I2A | condition met |
| chain 5 L8R | condition not met |
| chain 5 S1K | condition met |
| chain 5 N4R | condition met |

[in] # TODO verify ratio to parent < 1 strictly for this variant: chain 5 I2V
[out] condition met

[in] Request: chain 5 N4I
[out] condition met
